These measurements were taken from paper PMC9415947.

# assay: Bioavailability in mice
# assaySetup: mouse, in vivo, depending on the formulation form, read-out: bioavailability F
readoutType: bioavailability

INSERT INTO measurements (compound, reported) VALUES
  ('CC(C)(C)N1CCN(Cc2cc3nc(-n4c(C(F)F)nc5ccccc54)cc(N4CCOCC4)n3n2)CC1 [Compound 6]', '> 55%');

====

# measurementTarget: PI3Kδ (Homo sapiens, UniProt O00329)
# Construct: purchased Merck Millipore
# Sequence (O00329 whole entry, looked up): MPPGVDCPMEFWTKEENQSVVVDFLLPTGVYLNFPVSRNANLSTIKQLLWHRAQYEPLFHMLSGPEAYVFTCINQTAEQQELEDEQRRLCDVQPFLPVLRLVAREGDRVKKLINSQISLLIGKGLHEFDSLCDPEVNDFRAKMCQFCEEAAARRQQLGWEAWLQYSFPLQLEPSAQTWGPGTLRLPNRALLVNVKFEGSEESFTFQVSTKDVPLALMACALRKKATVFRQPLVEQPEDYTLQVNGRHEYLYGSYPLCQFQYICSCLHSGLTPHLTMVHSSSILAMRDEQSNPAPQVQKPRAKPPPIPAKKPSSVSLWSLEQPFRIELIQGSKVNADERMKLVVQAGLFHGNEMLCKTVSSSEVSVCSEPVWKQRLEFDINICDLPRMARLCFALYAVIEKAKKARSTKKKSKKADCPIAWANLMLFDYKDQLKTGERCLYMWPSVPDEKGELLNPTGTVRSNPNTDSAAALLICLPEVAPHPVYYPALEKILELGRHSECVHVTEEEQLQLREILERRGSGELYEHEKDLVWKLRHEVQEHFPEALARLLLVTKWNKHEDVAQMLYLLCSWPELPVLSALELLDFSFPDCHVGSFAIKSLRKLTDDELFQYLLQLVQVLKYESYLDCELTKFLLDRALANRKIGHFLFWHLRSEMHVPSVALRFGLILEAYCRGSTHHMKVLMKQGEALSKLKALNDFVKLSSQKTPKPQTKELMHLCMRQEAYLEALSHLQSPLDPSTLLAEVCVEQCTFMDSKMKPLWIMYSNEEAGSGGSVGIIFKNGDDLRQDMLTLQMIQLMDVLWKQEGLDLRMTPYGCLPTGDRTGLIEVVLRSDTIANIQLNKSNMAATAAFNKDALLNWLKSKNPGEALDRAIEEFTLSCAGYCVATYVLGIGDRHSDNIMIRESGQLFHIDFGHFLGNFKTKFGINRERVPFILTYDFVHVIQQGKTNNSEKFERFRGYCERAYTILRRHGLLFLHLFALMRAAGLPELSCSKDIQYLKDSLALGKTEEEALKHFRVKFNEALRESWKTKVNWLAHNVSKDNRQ
# assay: In vitro PI3K inhibition assay (ADP-Glo kinase assay), PI3Kδ
# Assay type: biochemical
# assaySetup: mean of two independent experiments
pIC50: −log10 of the molar value.
readoutType: pIC50

INSERT INTO results (compound, reported) VALUES
  ('CCOC(=O)C1CCCN(Cc2cc3nc(-n4c(C(F)F)nc5ccccc54)cc(N4CCOCC4)n3n2)C1 (stereo not drawn) [Compound 26]', 6.69),
  ('N#CC1CCN(Cc2cc3nc(-n4c(C(F)F)nc5ccccc54)cc(N4CCOCC4)n3n2)CC1 [Compound 32]', 6.72),
  ('CC(=O)NC1CCN(Cc2cc3nc(-n4c(C(F)F)nc5ccccc54)cc(N4CCOCC4)n3n2)CC1 [Compound 35]', 6.35);

====

# assay: Plasma protein binding, range across species
# Type: in vitro ADME
# assaySetup: human, monkey, mouse, rat, range depending on the species, read-out: plasma protein binding (PPBs)
readoutType: fraction unbound

INSERT INTO results (smilesstring, reported) VALUES
  ('CC(C)(C)N1CCN(Cc2cc3nc(-n4c(C(F)F)nc5ccccc54)cc(N4CCOCC4)n3n2)CC1', '0.17 to 0.21');

====

# measurementTarget: PI3Kδ (Homo sapiens, UniProt O00329)
# Construct: purchased Merck Millipore
# assay: In vitro PI3K inhibition assay (ADP-Glo kinase assay), PI3Kδ
# Assay type: biochemical
# assaySetup: mean of two independent experiments
pIC50: −log10 of the molar value.
Below, each entry is listed with its recorded pIC50.
readoutType: pIC50

INSERT INTO results (molecule, measurementtarget, readouttype, reported) VALUES
  ('N#CC1CCN(C(=O)c2cc3nc(-n4c(C(F)F)nc5ccccc54)cc(N4CCOCC4)n3n2)CC1', 'PI3Kδ (Homo sapiens, UniProt O00329)', 'pIC50', 6.46),
  ('CC(C)(C)N1CCN(Cc2cc3nc(-n4c(C5CC5)nc5ccccc54)cc(N4CCOCC4)n3n2)CC1', 'PI3Kδ (Homo sapiens, UniProt O00329)', 'pIC50', 5.97),
  ('OC1CCN(Cc2cc3nc(-n4c(C(F)F)nc5ccccc54)cc(N4CCOCC4)n3n2)CC1', 'PI3Kδ (Homo sapiens, UniProt O00329)', 'pIC50', 6.25),
  ('O=C(c1cc2nc(-n3c(C(F)F)nc4ccccc43)cc(N3CCOCC3)n2n1)N1CCCC1CO (stereo not drawn)', 'PI3Kδ (Homo sapiens, UniProt O00329)', 'pIC50', 6.34),
  ('CC(C)(C)N1CCN(Cc2cc3nc(-n4c(C(F)F)nc5ccccc54)cc(N4CCOCC4)n3n2)CC1', 'PI3Kδ (Homo sapiens, UniProt O00329)', 'pIC50', 7.74),
  ('CCc1nc2ccccc2n1-c1cc(N2CCOCC2)n2nc(CN3CCN(C(C)(C)C)CC3)cc2n1', 'PI3Kδ (Homo sapiens, UniProt O00329)', 'pIC50', 6.41),
  ('CC1(O)CCN(Cc2cc3nc(-n4c(C(F)F)nc5ccccc54)cc(N4CCOCC4)n3n2)CC1', 'PI3Kδ (Homo sapiens, UniProt O00329)', 'pIC50', 6.21),
  ('O=C(c1cc2nc(-n3c(C(F)F)nc4ccccc43)cc(N3CCOCC3)n2n1)N1CCC(F)(F)CC1', 'PI3Kδ (Homo sapiens, UniProt O00329)', 'pIC50', 6.10),
  ('O=C(c1cc2nc(-n3c(C(F)F)nc4ccccc43)cc(N3CCOCC3)n2n1)N1CCC(O)CC1', 'PI3Kδ (Homo sapiens, UniProt O00329)', 'pIC50', 6.71),
  ('NC(=O)C1CCN(C(=O)c2cc3nc(-n4c(C(F)F)nc5ccccc54)cc(N4CCOCC4)n3n2)CC1', 'PI3Kδ (Homo sapiens, UniProt O00329)', 'pIC50', 6.50),
  ('CC(C)(C(N)=O)N1CCN(Cc2cc3nc(-n4c(C(F)F)nc5ccccc54)cc(N4CCOCC4)n3n2)CC1', 'PI3Kδ (Homo sapiens, UniProt O00329)', 'pIC50', 7.51),
  ('CNC(=O)CN1CCN(C(=O)c2cc3nc(-n4c(C(F)F)nc5ccccc54)cc(N4CCOCC4)n3n2)CC1', 'PI3Kδ (Homo sapiens, UniProt O00329)', 'pIC50', 7.09),
  ('O=C(c1cc2nc(-n3c(C(F)F)nc4ccccc43)cc(N3CCOCC3)n2n1)N1CCOCC1', 'PI3Kδ (Homo sapiens, UniProt O00329)', 'pIC50', 6.65),
  ('CC(=O)NC1CCN(C(=O)c2cc3nc(-n4c(C(F)F)nc5ccccc54)cc(N4CCOCC4)n3n2)CC1', 'PI3Kδ (Homo sapiens, UniProt O00329)', 'pIC50', 6.85),
  ('CC1(O)CCN(C(=O)c2cc3nc(-n4c(C(F)F)nc5ccccc54)cc(N4CCOCC4)n3n2)CC1', 'PI3Kδ (Homo sapiens, UniProt O00329)', 'pIC50', 6.67);
